Target Under Test: VHL (Homo sapiens, UniProt P40337)
Method Description: Fluorescence polarization competition assay (HIF-1α peptide FP displacement)
Experimental Conditions: IC50 (μM) 10% DMSO, 10% DMSO
Measurement Type: IC50 (µM)

Compound | Target Under Test | Endpoint Unit | IC50
O=C(NCc1ccc(Cl)cc1)[C@@H]1C[C@@H](O)CN1C(=O)c1ccc2[nH]ncc2c1 [VL126] | VHL (Homo sapiens, UniProt P40337) | µM | 88.1
Cc1cc(CC(=O)N2C[C@H](O)C[C@H]2C(=O)NCc2ccc(C(C)(C)C)cc2)on1 [VL031] | VHL (Homo sapiens, UniProt P40337) | µM | 68.5

[1] Cc1cc(CC(=O)N2C[C@H](O)C[C@H]2C(=O)N[C@@H](C)c2ccccc2)on1 [VL032]
[2] Cc1cc(CC(=O)N2C[C@H](O)C[C@H]2C(=O)NCc2ccc(C(F)(F)F)cc2)on1 [VL046]
[3] COc1ccc(Cn2cncc2-c2ccc(CNC(=O)[C@@H]3C[C@@H](O)CN3C(=O)Cc3cc(C)no3)cc2)cc1 [VL132]
[4] Cc1cc(CC(=O)N2C[C@H](O)C[C@H]2C(=O)NCc2ccc(-c3c[nH]nn3)cc2)on1 [VL140]
Order the entries by their reported IC50, beginning at the minimum. Order the labels as requested and give them as your answer. 4, 3, 2, 1

====

Target Under Test: VHL (Homo sapiens, UniProt P40337)
Method Description: Fluorescence polarization competition assay (HIF-1α peptide FP displacement)
Experimental Conditions: IC50 (μM) 10% DMSO, 10% DMSO
Measurement Type: IC50 (µM)

Use these answered entries as a reference point.
Chemical String | IC50 (µM)
O=C(NCc1ccc(Cl)cc1)[C@@H]1C[C@@H](O)CN1C(=O)c1ccccc1[N+](=O)[O-] | 74.2
Cc1cc(CC(=O)N2C[C@H](O)C[C@H]2C(=O)NCc2ccc(Cl)c(C(F)(F)F)c2)on1 | 589

[A] O=C(NCc1ccc(Cl)cc1)[C@@H]1C[C@@H](O)CN1C(=O)c1cccc(Br)c1
[B] Cc1cc(CC(=O)N2C[C@H](O)C[C@H]2C(=O)NCc2ccc(-c3c(C)noc3C)cc2)on1
Given the two records A and B , choose the one whose IC50 value is lower. Give the chosen item's label as your response. A
(A: 19.6 µM, B: 52.2 µM)

[P] Cc1c(N)cccc1C(=O)N1C[C@H](O)C[C@H]1C(=O)NCc1ccc(Cl)cc1
[Q] Cc1cc(CC(=O)N2C[C@H](O)C[C@H]2C(=O)NCc2ccc(-c3ccccc3)cc2)on1
[R] Cc1cc(CC(=O)N2C[C@H](O)C[C@H]2C(=O)NCc2cccc3cccnc23)on1
[S] Cc1cc(CC(=O)N2C[C@H](O)C[C@H]2C(=O)NCc2ccc(C)o2)on1
[T] Cc1cc(CC(=O)N2C[C@H](O)C[C@H]2C(=O)NCc2ccc(C(=O)C(C)C)cc2)on1
Sort these compounds on IC50 so the largest reading comes first. Order the labels as requested and give them as your answer. R, S, T, P, Q

====

Target Under Test: VHL (Homo sapiens)
Method Description: Fluorescence polarization competition assay (HIF-1α peptide FP displacement)
Experimental Conditions: Table 1A, binding of initial ligands to VHL; average of three independent trials, each in triplicate
Measurement Type: IC50 (µM)
Please state the figure in µM; there is no need to write the unit.

Molecule | IC50, µM
Cc1cc(CC(=O)N2C[C@H](O)C[C@H]2C(=O)NCCc2ccc(O)cc2)on1 [Compound 2] | 120

# input for lookup
// lookup IC50 for Cc1cc(CC(=O)N2C[C@H](O)C[C@H]2C(=O)NCc2cccc(Cl)c2)on1 [Compound 1] 117

====

Target Under Test: UniProt P40337
Method Description: Fluorescence polarization competition assay (HIF-1α peptide FP displacement)
Experimental Conditions: IC50 (μM) 10% DMSO, 10% DMSO
Measurement Type: IC50 (µM)

Use these answered entries as a reference point.
Chemical String | Target Under Test | Measurement Type | Experimental Value
Cc1cc(CC(=O)N2C[C@H](O)C[C@H]2C(=O)N[C@@H](CO)c2ccc(Cl)cc2)on1 | UniProt P40337 | IC50 | 36.4
Cc1cc(CC(=O)N2C[C@H](O)C[C@H]2C(=O)NCc2ccc(OC(F)(F)F)cc2)on1 | UniProt P40337 | IC50 | 146
COc1ccc(CNC(=O)[C@@H]2C[C@@H](O)CN2C(=O)Cc2cc(C)no2)cc1OC | UniProt P40337 | IC50 | 517

[A] O=C(NCc1ccc(Cl)cc1)[C@@H]1C[C@@H](O)CN1C(=O)c1cc(C2CC2)on1
[B] O=C(NCc1ccc(Cl)cc1)[C@@H]1C[C@@H](O)CN1C(=O)c1ccccc1
[C] Cc1cc(CC(=O)N2C[C@H](O)C[C@H]2C(=O)NCc2ccc(-c3cc[nH]c3)cc2)on1
[D] Cc1cc(CC(=O)N2C[C@H](O)C[C@H]2C(=O)NCc2cccnc2)on1
Sort these molecules on IC50 so the largest reading comes first. Order the labels as requested and give them as your answer. D, A, B, C
(D: 744 µM, A: 419 µM, B: 110 µM, C: 2.2 µM)

====

Target Under Test: VHL (Homo sapiens, UniProt P40337)
Method Description: Fluorescence polarization competition assay (HIF-1α peptide FP displacement)
Experimental Conditions: IC50 (μM) 10% DMSO, 10% DMSO
Measurement Type: IC50 (µM)

Use these answered entries as a reference point.
Compound | Target Under Test | Measurement Type | Endpoint Unit | Experimental Value
Cc1cc(CC(=O)N2C[C@H](O)C[C@H]2C(=O)NCc2ccc([N+](=O)[O-])cc2)on1 [VL048] | VHL (Homo sapiens, UniProt P40337) | IC50 | µM | 24.8
O=C(NCc1ccc(Cl)cc1)[C@@H]1C[C@@H](O)CN1C(=O)c1cccc(Cl)c1 [VL054] | VHL (Homo sapiens, UniProt P40337) | IC50 | µM | 140
Cc1cc(CC(=O)N2C[C@H](O)C[C@H]2C(=O)NCc2ccc(F)cc2)on1 [VL020] | VHL (Homo sapiens, UniProt P40337) | IC50 | µM | 295

[P] Cc1cc(CC(=O)N2C[C@H](O)C[C@H]2C(=O)NCc2ccc(N3CCCCC3)cc2)on1 [VL110]
[Q] O=C(NCc1ccc(Cl)cc1)[C@@H]1C[C@@H](O)CN1C(=O)c1cncc(Br)c1 [VL100]
Please state the entry with greater IC50 among P and Q . Give the chosen item's label as your response. P

[1] Cc1cc(CC(=O)N2C[C@H](O)C[C@H]2C(=O)NCc2ccc(S(N)(=O)=O)cc2)on1 [VL087]
[2] NS(=O)(=O)c1ccc(C(=O)N2C[C@H](O)C[C@H]2C(=O)NCc2ccc(Cl)cc2)cc1 [VL082]
[3] Cc1cc(CC(=O)N2C[C@H](O)C[C@H]2C(=O)NCc2ccccn2)on1 [VL019]
[4] Cc1cc(CC(=O)N2C[C@H](O)C[C@H]2C(=O)NCc2ccc(C(=O)CC(C)C)cc2)on1 [VL090]
Sort these compounds on IC50 so the largest reading comes first. Order the labels as requested and give them as your answer. 3, 1, 4, 2
(3: 451 µM, 1: 103 µM, 4: 45.2 µM, 2: 29 µM)

[1] CCCNC(=O)OC[C@@H](NC(=O)[C@@H]1C[C@@H](O)CN1C(=O)Cc1cc(C)no1)c1ccc(Cl)cc1 [VL163]
[2] Cc1cc(CC(=O)N2C[C@H](O)C[C@H]2C(=O)NCc2ccc(Cl)c(Cl)c2)on1 [VL030]
[3] O=C(NCc1ccc(Cl)cc1)[C@@H]1C[C@@H](O)CN1C(=O)c1cccc(F)c1 [VL075]
Order the entries by their reported IC50, beginning at the minimum. Order the labels as requested and give them as your answer. 3, 2, 1
(3: 35.5 µM, 2: 215 µM, 1: 508 µM)

[P] O=C(NCc1cccc(Cl)c1)[C@@H]1C[C@@H](O)CN1S(=O)(=O)c1cccc([N+](=O)[O-])c1 [VL013]
[Q] CON(C)C(=O)c1ccc(CNC(=O)[C@@H]2C[C@@H](O)CN2C(=O)Cc2cc(C)no2)cc1 [VL093]
Please state the entry with greater IC50 among P and Q . Give the chosen item's label as your response. Q

[a] Cc1cc(CC(=O)N2C[C@H](O)C[C@H]2C(=O)NCc2ccc(-c3ncon3)cc2)on1 [VL131]
[b] Cc1c(C(=O)N2C[C@H](O)C[C@H]2C(=O)NCc2ccc(Cl)cc2)cccc1[N+](=O)[O-] [VL066]
Given the two records a and b , choose the one whose IC50 value is lower. Give the chosen item's label as your response. a
(a: 8 µM, b: 72.4 µM)

[A] CCOC(=O)Cn1cc(-c2cccc(C(=O)N3C[C@H](O)C[C@H]3C(=O)NCc3ccc(Cl)cc3)c2)nn1 [VL148]
[B] COCc1cn(CC(=O)N2C[C@H](O)C[C@H]2C(=O)NCc2ccc(Cl)cc2)nn1 [VL141]
[C] COCc1cn(CC(=O)N2C[C@H](O)C[C@H]2C(=O)NCc2ccc(-c3ccccc3)cc2)nn1 [VL137]
Order the entries by their reported IC50, beginning at the minimum. Order the labels as requested and give them as your answer. A, C, B
(A: 23.8 µM, C: 35.6 µM, B: 192 µM)

[a] Cc1cc(CC(=O)N2C[C@H](O)C[C@H]2C(=O)NCc2ccc(C(=O)OCC3CC3)cc2)on1 [VL091]
[b] O=C(NCc1ccc(Cl)cc1)[C@@H]1C[C@@H](O)CN1C(=O)c1cccc2[nH]cnc12 [VL125]
[c] Cc1cc(CC(=O)N2C[C@H](O)C[C@H]2C(=O)NCc2c[nH]c3ccccc23)on1 [VL109]
[d] N#Cc1cccc(C(=O)N2C[C@H](O)C[C@H]2C(=O)NCc2ccc(Cl)cc2)c1 [VL077]
Sort these compounds on IC50 so the largest reading comes first. Order the labels as requested and give them as your answer. b, c, a, d
(b: 790 µM, c: 349 µM, a: 23 µM, d: 8.9 µM)
